These measurements were taken from ChEMBL document CHEMBL3797035.

- measurement.target: UniProt:P21728
- Sequence (P21728 whole entry): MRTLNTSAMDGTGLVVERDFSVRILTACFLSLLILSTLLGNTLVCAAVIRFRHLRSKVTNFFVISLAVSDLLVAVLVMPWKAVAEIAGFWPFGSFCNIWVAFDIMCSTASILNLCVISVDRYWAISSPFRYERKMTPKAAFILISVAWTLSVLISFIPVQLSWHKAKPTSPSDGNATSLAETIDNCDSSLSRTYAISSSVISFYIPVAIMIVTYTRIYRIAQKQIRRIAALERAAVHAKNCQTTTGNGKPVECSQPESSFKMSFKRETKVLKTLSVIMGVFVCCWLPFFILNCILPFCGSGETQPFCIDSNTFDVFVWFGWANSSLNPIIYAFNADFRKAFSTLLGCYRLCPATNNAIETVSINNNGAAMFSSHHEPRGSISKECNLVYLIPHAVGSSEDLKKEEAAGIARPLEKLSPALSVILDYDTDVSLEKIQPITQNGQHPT
- protocol.details: Displacement of [3H]SCH23390 from human D1 receptor expressed in HEK293 cells
- Format: cell-based
Answer each item with its documented Ki.

COc1cc(CCNCCc2ccc(O)c3[nH]c(=O)ccc23)ccc1OCCCc1ccccc1 ... 2800 nM
COc1ccccc1OCCNC[C@@H](O)c1ccc(O)c(O)c1 ... 430 nM
CC(C)NCC(O)c1ccc(O)c(O)c1 (stereo unspecified) [ISOPROTERENOL] ... > 50000 nM

For every item in the list below, what is its measured Ki?
1. COc1cc(CCNC[C@@H](O)c2ccc(O)c3c2OCC(=O)N3)ccc1OCCCc1ccccc1
2. COc1cc(CCNCCc2ccc(O)c3c2OCC(=O)N3)ccc1OCCCc1ccccc1
3. COc1cc(CCNC[C@@H](O)c2ccc(O)c(O)c2)ccc1OCCCc1ccccc1
4. COc1cc(CCNC[C@H](O)c2ccc(O)c(O)c2)ccc1OCCCc1ccccc1
5. COc1cc(CCNC[C@H](O)c2ccc(O)c3c2OCC(=O)N3)ccc1OCCCc1ccccc1
6. COc1ccccc1OCCNC[C@H](O)c1ccc(O)c(O)c1
7. COc1cc(CCNC[C@@H](O)c2ccc(O)c3[nH]c(=O)ccc23)ccc1OCCCc1ccccc1

2800 nM
960 nM
2900 nM
430 nM
4500 nM
890 nM
6800 nM

What does the data say about its Ki? Entry: COc1cc(CCNCCc2ccc(O)c(O)c2)ccc1OCCCc1ccccc1
860 nM

###

- measurement.target: D(2) dopamine receptor (Homo sapiens, UniProt P14416)
- Sequence (P14416 whole entry): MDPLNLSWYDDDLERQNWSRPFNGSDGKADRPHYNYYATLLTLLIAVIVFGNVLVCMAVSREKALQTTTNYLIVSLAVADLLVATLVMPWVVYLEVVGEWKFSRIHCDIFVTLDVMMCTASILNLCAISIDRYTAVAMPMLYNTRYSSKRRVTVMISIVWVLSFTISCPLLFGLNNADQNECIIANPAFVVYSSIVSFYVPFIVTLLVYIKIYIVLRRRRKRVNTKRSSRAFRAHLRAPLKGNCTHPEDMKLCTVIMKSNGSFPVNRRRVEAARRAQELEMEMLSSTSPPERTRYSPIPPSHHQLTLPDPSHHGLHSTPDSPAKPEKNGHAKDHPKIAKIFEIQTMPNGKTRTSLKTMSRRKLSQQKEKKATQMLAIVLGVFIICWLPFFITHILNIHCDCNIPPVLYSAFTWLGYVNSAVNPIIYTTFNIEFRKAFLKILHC
- protocol.details: Displacement of [3H]spiperone from human D2S receptor expressed in CHO cells
- Type: cell-based
quantity.measured: Ki
Respond with a number, then the unit of measure.

Worked examples, 3 molecules total:
COc1cc(CCNC[C@@H](O)c2ccc(O)c3c2OCC(=O)N3)ccc1OCCCc1ccccc1 ... 96 nM
COc1cc(CCNC[C@@H](O)c2ccc(O)c(O)c2)ccc1OCCCc1ccccc1 ... 1700 nM
COc1ccccc1OCCNC[C@H](O)c1ccc(O)c(O)c1 ... 430 nM

What does the data say about its Ki? Entry: COc1ccccc1OCCNCCc1ccc(O)c(O)c1
48 nM
